target: GlcNAc(b1-3)Gal(b1-4)GlcNAc(b1-3)Gal(b1-4)GlcNAc(b1-3)Gal(b1-4)GlcNAc(b1-2)Man(a1-3)[GlcNAc(b1-3)Gal(b1-4)GlcNAc(b1-3)Gal(b1-4)GlcNAc(b1-3)Gal(b1-4)GlcNAc(b1-2)Man(a1-6)]Man(b1-4)GlcNAc(b1-4)[Fuc(a1-6)]GlcNAc; test: glycan array binding signal (z-score within array); higher = stronger binding; conditions: glycan notation: IUPAC condensed, linker removed
The full list was thinned out, with the strongest signals kept by preference.
Assignment: determine reported glycan array binding signal (z-score) for the given binders.
Keep it simple and answer with nothing but the number.

Lookup: # input binder: Epf (Streptococcus pyogenes) (protein) GDHGPEFNGVMVVKAAEAEELPDDLMNFKGTWEVSADGSSGRFFSKGATDSYVFHLIPAKDVKKPGWREHNEVKDSYIKIDKQSIAARYKTSTTAPYSVAFKVNTKSLIKDHDYKITFEQGQIASGITVDYRIGSAFNKTTDDSFKISDESKYASNVKIEGEEQGFKQREQGDKTISFRTLKEGPMSLVLLSKVEKKPQGDLDVEFKNLKIIDVTNPSQLDKGVAYVGNKNVQLTLKSDDGRTNFEGDEISLFNSRGELLQTVTVTKDQQNPISITLSEDQAKSLKNKEKLKVSIKQKQSKKTSKDFFFEVGIDPKVEAKQKEKLLELDKVKKQIEDSINGDAWLPEKPVDLQGDHGLSAWSHPQFEK ; wanted: its glycan array binding signal (z-score)
Found: 2.18

Lookup: Entry Als3-41 (Candida albicans) (protein) KTITGVFNSFNSLTWSNAATYNYKGPGTPTWNAVLGWSLDGTSASPGDTFTLNMPCVFKFTTSQTSVDLTAHGVKYATCQFQAGEEFMTFSTLTCTVSNTLTPSIKALGTVTLPLAFNVGGTGSSVDLEDSKCFTAGTNTVTFNDGGKKISINVDFERSNVDPKGYLTDSRVIPSLNKVSTLFVAPQCANGYTSGTMGFANTYGDVQIDCSNIHVGITKGLNDWNYPVSSESFSYTKTCSSNGIFITYKNVPAGYRPFVDAYISATDVNSYTLSYANEYTCAGGYWQRAPFTLRWTGYRNSDAGSNGIVIVATTRTVTDSTTAVTTLPFDPNRDKTKTIEILKPIPTTTITTSYVGVTTSYLTKTAPIGETATVIVD : reported glycan array binding signal (z-score) = ?
Found: 1.72

Lookup: If you can, please state the reported glycan array binding signal (z-score) value of HBHA-Rv (Mycobacterium tuberculosum), P0A5P6 (protein) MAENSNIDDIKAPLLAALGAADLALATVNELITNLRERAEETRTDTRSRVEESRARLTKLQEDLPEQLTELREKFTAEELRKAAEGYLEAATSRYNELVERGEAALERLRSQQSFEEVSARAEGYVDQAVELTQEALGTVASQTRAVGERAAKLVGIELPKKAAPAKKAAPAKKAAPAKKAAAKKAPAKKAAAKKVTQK .
Found: -0.455

Lookup: Would you mind telling me what glycan array binding signal (z-score) value was observed for SJCP1084 (Schistosoma japonicum) (protein) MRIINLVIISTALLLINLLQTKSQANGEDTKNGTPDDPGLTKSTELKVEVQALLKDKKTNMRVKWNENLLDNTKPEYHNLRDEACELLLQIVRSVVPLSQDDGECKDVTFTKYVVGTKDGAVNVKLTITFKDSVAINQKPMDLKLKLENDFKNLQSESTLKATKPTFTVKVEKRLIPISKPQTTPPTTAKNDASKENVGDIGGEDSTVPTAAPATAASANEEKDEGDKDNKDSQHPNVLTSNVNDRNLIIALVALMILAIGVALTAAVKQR ?
Found: 1.66
